# System: Mus musculus
# assay-notes: Antagonistic activity test against 5-Hydroxytryptamine-induced head shake in mouse after intraperitoneal administration
# Format: functional
# condition-label: ip, read-out: ID50 (the source's name)
measured-attribute: log10(ED50) (log10 of the value in mg/kg)
Answers are given as log10 of ED50 in mg/kg.

COc1ccc2cc(-c3ccccc3)c(SCCN(C)C)nc2c1.Cl ... 1.70
Cc1c(-c2ccc(F)cc2)c(SCCN(C)C)nc2ccccc12.O=C(O)C(=O)O ... 1.70
CN(C)CCSc1nc2ccccc2cc1-c1cccs1.O=C(O)C(=O)O ... 0.69
COc1ccccc1-c1c(SCCN(C)C)nc2ccccc2c1C.O=C(O)C(=O)O ... 1.70

Reported log10(ED50) for Mus musculus, given "CN(C)CCSc1nc2ccccc2cc1Cc1ccccc1.Cl" ?
1.70

Reported log10(ED50) for Mus musculus, given "CN(C)CCSc1nc2ccccc2cc1-c1ccsc1.O=C(O)C(=O)O" ?
0.53

Reported log10(ED50) for Mus musculus, given "COc1c(-c2ccc(F)cc2)c(SCCN(C)C)nc2ccccc12.O=C(O)C(=O)O" ?
1.70

Reported log10(ED50) for Mus musculus, given "CN(C)CCSc1nc2ccccc2cc1-c1ccccn1.O=C(O)C(=O)O" ?
0.53

Reported log10(ED50) for Mus musculus, given "CSc1ccc2nc(SCCN(C)C)c(-c3ccccc3)cc2c1.O=C(O)C(=O)O" ?
1.70

Reported log10(ED50) for Mus musculus, given "CC(C)c1cc2ccccc2nc1SCCN(C)C.Cl" ?
0.41

Reported log10(ED50) for Mus musculus, given "Cc1ncc(-c2cc3ccccc3nc2SCCN(C)C)s1.O=C(O)C(=O)O" ?
0.69

Reported log10(ED50) for Mus musculus, given "COc1c(-c2ccccc2)c(SCCN(C)C)nc2ccccc12.O=C(O)C(=O)O" ?
0.54

Reported log10(ED50) for Mus musculus, given "CN(C)CCSc1nc2ccccc2cc1C(C)(C)C.O=C(O)C(=O)O" ?
1.70

Reported log10(ED50) for Mus musculus, given "COc1ccc2nc(SCCN(C)C)c(-c3ccccc3)cc2c1.O=C(O)C(=O)O" ?
1.70

Reported log10(ED50) for Mus musculus, given "CN(C)CCSc1nc2ccccc2cc1-c1ccc(F)cc1.Cl" ?
0.23

Reported log10(ED50) for Mus musculus, given "CN(C)CCSc1nc2ccccc2cc1C1CCCCC1.Cl" ?
1.70
